// provenance: patent US10441588B2

- System: S. aureus biofilm
- Assay details: S. aureus biofilm inhibition, optical density, test/control
- Type: cell-based, Staphylococcus aureus
- Measurement setup: Staphylococcus aureus, 10 μM; growth of biofilm test/control by optical density
# activity at 10 µM >= 60% gives class 1, anything below gives class 0

Look over these answered cases.
[Q] Identify whether the reported activity at 10 µM of the following compound is 60% or greater: C=CCn1c(SCCOC)nc2c(c1=O)C1(CCN(C(=O)c3ccccc3)CC1)Cc1ccccc1-2 [CCG-206231]
[A] class 0

[Q] Identify whether the reported activity at 10 µM of the following compound is 60% or greater: C=CCn1c(SCC)nc2c(c1=O)C(C)(C)Cc1cc(OCCN(CC)CC)ccc1-2 [CCG-205396]
[A] class 1

More entries:
[Q] Identify whether the reported activity at 10 µM of the following compound is 60% or greater: CCSc1nc2c(c(=O)n1C)C(C)(C)Cc1ccc(OC)cc1-2 [CCG-206353]
[A] class 0

[Q] Identify whether the reported activity at 10 µM of the following compound is 60% or greater: C=CCn1c(SCC)nc2c(c1=O)C(C)(C)Cc1cc(OC)ccc1-2 [CCG-203592]
[A] class 0

[Q] Identify whether the reported activity at 10 µM of the following compound is 60% or greater: C=CCn1c(SCCOC)nc2c(c1=O)C1(CCN(C(C)=O)CC1)Cc1ccccc1-2 [CCG-206230]
[A] class 1

[Q] Identify whether the reported activity at 10 µM of the following compound is 60% or greater: C=CCOc1nc(SCC)nc2c1C(C)(C)Cc1ccc(OC)cc1-2 [CCG-206358]
[A] class 0

====

- Test system: S. epidermis biofilm
- Assay details: S. epidermis biofilm inhibition, optical density, test/control
- Measurement setup: Staphylococcus epidermidis, read-out: S. epidermis Biofilm inhibition 5 μM vs. (−) Control, 5 μM; growth of biofilm test/control by optical density
Counter-ions that a name gives are not always drawn.
Listed below: activity at 5 µM values for each entry.
Numbers only; they are read as %.

Record excerpt, results attached:
Briefly, activity at 5 µM measured for COc1ccc2c(c1)CC1(CCNCC1)c1c(OC)nc(SCC#N)nc1-2 : 105

Briefly, activity at 5 µM measured for C=CCn1c(SCC)nc2c(c1=O)C1(CCNCC1)Cc1cc(OC)ccc1-2 [CCG-206664, hydrochloride] : 87.7

Briefly, activity at 5 µM measured for C=CCn1c(SCC)nc2c(c1=O)C1(CCN(C(=O)OC(C)(C)C)CC1)Cc1cc(OC)ccc1-2 : 73.4

Briefly, activity at 5 µM measured for C=CCn1c(SCCOC)nc2c(c1=O)C1(CCN(C(=O)Nc3ccccc3)CC1)Cc1cc(OC)ccc1-2 : 125

Briefly, activity at 5 µM measured for C=CCn1c(SCCOC)nc2c(c1=O)C1(CCN(C(=O)OC(C)(C)C)CC1)Cc1cc(OC)ccc1-2 : 71.5

Briefly, activity at 5 µM measured for C=CCn1c(SCCOC)nc2c(c1=O)C1(CCN(C(=O)OC(C)(C)C)C1)Cc1ccccc1-2 (stereo not shown) : 85

Briefly, activity at 5 µM measured for C=CCn1c(SCCOC)nc2c(c1=O)C1(CCN(Cc3ccccc3)CC1)Cc1cc(OC)ccc1-2 : 98.7

Briefly, activity at 5 µM measured for COc1ccc2c(c1)CC1(CCNCC1)c1c(OCC#N)nc(SCC#N)nc1-2 : 93

More entries:
Briefly, activity at 5 µM measured for C=CCn1c(SCCOC)nc2c(c1=O)C1(CCN(C(=O)NC)CC1)Cc1cc(OC)ccc1-2 : 79

Briefly, activity at 5 µM measured for C=CCn1c(SCCOC)nc2c(c1=O)C1(CCNCC1)Cc1cc(OC)ccc1-2 [CCG-206661, hydrochloride] : 98.7
